# TESTED_ON: T1, PTPRG on U266 cells (human, UniProt P23470)
# T1 construct: endogenous on U266 multiple myeloma cells; also called HW-1 target on U266
# ASSAY_SUMMARY: flow cytometry, IgG1 on U266 cells
# Experimental: Staining protocol. Cells were harvested (5×10⁴ cells per sample), washed once with phosphate-buffered saline (PBS) at RT, and a second time with ice-cold FACS buffer (PBS, 0.5% BSA, 2 mM EDTA, 0.1% NaN₃). Cells were stained in 50 μL of primary antibody for 30 min on ice, washed twice with 100 μL FACS buffer, stained with 50 μL of diluted secondary antibody, washed two more times in FACS, and then resuspended in 50 μL FACS buffer. […] Data were analyzed using FlowJo version 10 software. […]
Give antibody-bound positive cells (%) for every item shown.

antibody-bound positive cells (%) recorded for this binder, HW-42 chimeric rabbit-human IgG1 LA/LA/PG (antibody, V domains shown, Fc-silenced (L234A/L235A/P329G) IgG1, lambda; Alexa Fluor 647-labeled in single-step flow cytometry; Cluster C-1) VH: QSVKESEGGLFKPADTLTLTCTVSGFSLSSNEISWVRQAPGEGLEYIGIIDTGGRAYYAVWARSRSTITRNTNLNTVTLKMTSLTAADTATYFCARGGVDTEWYAFSSWGPGTLVTVPS VL: SFVLTQPASVQVNLGQTVSLTCTADTLSRRYASWYQQKPGQAPVLLIFRDTSRPSGVPDRFSGSSSGDTATLTISGAQAGDEADYYCATSDGSGSNYQYVFGGGTQLTVTG , is 64.5%

antibody-bound positive cells (%) recorded for this binder, HW-1 chimeric rabbit-human IgG1 LA/LA/PG (antibody, V domains shown, Fc-silenced (L234A/L235A/P329G) IgG1, lambda; Alexa Fluor 647-labeled in single-step flow cytometry; Prototype of cluster C-1) VH: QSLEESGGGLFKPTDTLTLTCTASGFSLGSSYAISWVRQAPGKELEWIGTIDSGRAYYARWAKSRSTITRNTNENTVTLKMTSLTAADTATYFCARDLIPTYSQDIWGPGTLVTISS VL: SFVLTQPASVQVNLGQTVSLTCTADTLSRRYASWYQQKPGQAPVLLIYRDTSRPSGVPDRFSGSSSGNTATLTISGAQAGDEADYYCATSDGSGNSYQYVFGGGTQLTVTS , is 84.4%

antibody-bound positive cells (%) recorded for this binder, TH9-0022 (antibody, human IgG1, kappa, L234A L235A, V domains shown, also called TH9-022; negative control IgG1) VH: QSLEESGGRLVTPGTPLTLTCTVSGFSLSSYAMNWVRQAPGKGLEWIGIINSYGSTYYASWAKGRFTISKTSTTVDLKITSPTTEDTATYFCARVTYDSYGYGYAPYGMDLWGPGTLVTVSS VL: LVMTQTPSSTSNAVGGTVTIKCQASQSIGNVLAWYQQKPGQPPKLLIYAASTLASGVPSRVGGSRSGTEYTLTISGVQREDAATYYCLGSDSDSDIAFGGGTELEILR , is 6.5%

Values from patent US20260049134A1
